// data source = patent US20200148646A1

Reported Ki for target or system human κ opioid receptor (Homo sapiens, UniProt P41145), by entry.
MEASURED PROPERTY: Ki (nM)

COMPOUND | MEASURED PROPERTY | RECORDED VALUE
CCC(=O)N[C@H]1C[C@@]2(O)[C@H]3Cc4ccc(O)cc4[C@@]2(CCN3CC2CC2)C[C@@H]1O | Ki | 16.7
NCCCN[C@@H]1CC[C@@]2(O)[C@H]3Cc4ccc(O)cc4[C@@]2(CCN3CC2CC2)C1 | Ki | 0.51
N=C(N)NCCC(=O)N[C@@H]1CC[C@@]2(O)[C@H]3Cc4ccc(O)cc4[C@@]2(CCN3CC2CC2)C1 | Ki | 4.61
CC(C)CCCC(=O)N[C@H]1C[C@@]2(O)[C@H]3Cc4ccc(O)cc4[C@@]2(CCN3CC2CC2)CC1O (stereo partly shown) | Ki | 11.5
NCCN[C@@H]1CC[C@@]2(O)[C@H]3Cc4ccc(O)cc4[C@@]2(CCN3CC2CC2)C1 | Ki | 0.29
COc1ccc2c(c1)[C@]13CCN(CC4CC4)[C@H](C2)[C@]1(O)CC[C@@H](CC(=O)O)C3 | Ki | 597
N=C(N)Nc1ccc(N[C@@H]2CC[C@@]3(O)[C@H]4Cc5ccc(O)cc5[C@@]3(CCN4CC3CC3)C2)cc1 | Ki | 0.24
